# STUDY TARGET: wild-type human ALK cytoplasmic domain (amino acids 1058-1620) (Homo sapiens, UniProt Q9UM73)
# Construct: The cytoplasmic domain (amino acids 1058-1620) of wild-type human ALK; GST (N); made in house; host or cells: SF9 insect cells
# Sequence (Q9UM73 1058-1620): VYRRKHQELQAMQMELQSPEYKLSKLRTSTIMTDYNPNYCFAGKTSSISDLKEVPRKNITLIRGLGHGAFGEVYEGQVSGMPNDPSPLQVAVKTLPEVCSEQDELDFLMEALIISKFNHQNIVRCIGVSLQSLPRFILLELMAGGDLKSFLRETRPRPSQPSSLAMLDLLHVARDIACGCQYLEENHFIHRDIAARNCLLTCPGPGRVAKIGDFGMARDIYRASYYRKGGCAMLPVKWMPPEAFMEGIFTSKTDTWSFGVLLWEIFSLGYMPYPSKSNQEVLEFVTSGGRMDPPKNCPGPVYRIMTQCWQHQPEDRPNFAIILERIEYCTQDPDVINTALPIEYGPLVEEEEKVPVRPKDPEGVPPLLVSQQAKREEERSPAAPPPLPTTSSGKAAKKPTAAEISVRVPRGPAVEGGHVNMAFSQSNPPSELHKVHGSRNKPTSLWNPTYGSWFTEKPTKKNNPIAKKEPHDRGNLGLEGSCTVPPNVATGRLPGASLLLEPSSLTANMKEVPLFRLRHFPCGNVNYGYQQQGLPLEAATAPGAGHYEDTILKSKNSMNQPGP
# MEASUREMENT NOTES: ALK Inhibition in Enzyme Assay (Lance TR-FRET)
# Format: biochemical
# APPLIED CONDITIONS: 2 nM enzyme, ATP at 40 μM (Km apparent), 90 minutes, mean of three replicates; read-out: ALK IC50
Please provide measured IC50 for the entries that follow.

Example entries begin here.
{"columns": ["SMILES STR", "IC50"],
 "data": [
  ["COc1cc(Nc2nccc(N3CCC[C@H](C(=O)NCCc4ccc(C)c(C)c4)C3)n2)cc(OC)c1OC", "1000 to 5000 nM"],
  ["COc1cc(Nc2nccc(N3CCC[C@H](C(=O)NCc4ccccc4Br)C3)n2)cc(OC)c1OC", "1000 to 5000 nM"],
  ["COc1cc(Nc2nccc(N3CCC[C@H](C(=O)NCc4cc(Br)ccc4F)C3)n2)cc(OC)c1OC", "< 50 nM"]
]}

Query compound follows.
Please look up its IC50: COc1cc(Nc2nccc(N3CCC[C@H](C(=O)NCc4cccc(Br)c4)C3)n2)cc(OC)c1OC
< 50 nM

---

# STUDY TARGET: wild-type human ALK cytoplasmic domain (amino acids 1058-1620) (Homo sapiens, UniProt Q9UM73)
# Construct: The cytoplasmic domain (amino acids 1058-1620) of wild-type human ALK; GST (N); made in house; host or cells: SF9 insect cells
# MEASUREMENT NOTES: ALK Inhibition in Enzyme Assay (Lance TR-FRET)
# Format: biochemical
# APPLIED CONDITIONS: 2 nM enzyme, ATP at 40 μM (Km apparent), 90 minutes, mean of three replicates; read-out: ALK IC50
RESULT TYPE: IC50

{"columns": ["COMPOUND", "VALUE"],
 "data": [
  ["COc1cc(Nc2nccc(N3CCC[C@H](C(=O)NCc4ccc(Br)cc4)C3)n2)cc(OC)c1OC", "0.05 to 0.1 µM"],
  ["Cc1ccc(CNC(=O)[C@H]2CCCN(c3ccnc(Nc4ccc(C(C)C)cc4)n3)C2)cc1", "1 to 5 µM"],
  ["COc1cc(Nc2nccc(N3CCSC(C(=O)NCc4ccc(C)cc4)C3)n2)cc(OC)c1OC (stereo not shown)", "1 to 5 µM"],
  ["Cc1ccc(CNC(=O)[C@H]2CCCN(c3ccnc(Nc4ccc(=O)n(C)c4)n3)C2)cc1", "5 to 10 µM"],
  ["Cc1ccc(CNC(=O)[C@H]2CCCN(c3ccnc(Nc4cccc(OC(F)(F)F)c4)n3)C2)cc1", "1 to 5 µM"]
]}

Below is a list of compounds. For each, state its recorded IC50.
1. COc1cc(Nc2nccc(N3CCC[C@H](C(=O)NCc4ccc(C(F)(F)F)cc4)C3)n2)cc(OC)c1OC
2. COc1cc(Nc2nccc(N3CCC[C@H](C(=O)NC(C#N)c4ccc(OC(F)(F)F)cc4)C3)n2)cc(OC)c1OC (stereo partly shown)

["0.05 to 0.1 µM", "< 0.05 µM"]

---

# STUDY TARGET: wild-type human ALK cytoplasmic domain (amino acids 1058-1620) (Homo sapiens, UniProt Q9UM73)
# Construct: The cytoplasmic domain (amino acids 1058-1620) of wild-type human ALK; GST (N); made in house; host or cells: SF9 insect cells
# MEASUREMENT NOTES: ALK Inhibition in Enzyme Assay (Lance TR-FRET)
# Format: biochemical
# APPLIED CONDITIONS: 2 nM enzyme, ATP at 40 μM (Km apparent), 90 minutes, mean of three replicates; read-out: ALK IC50
RESULT TYPE: IC50

Example entries begin here.
{"columns": ["COMPOUND", "IC50"],
 "data": [
  ["Cc1ccc(CNC(=O)[C@H]2CCCN(c3ccnc(Nc4cccc5c4CNC5=O)n3)C2)cc1", "100 to 1000 nM"],
  ["COc1cc(Nc2nccc(N3CCC[C@H](C(=O)NCc4ccc(C(C)C)cc4)C3)n2)cc(OC)c1OC", "< 50 nM"],
  ["COc1cc(Nc2nccc(N3CCC[C@H](C(=O)NCc4ccc(C(F)(F)F)c(F)c4)C3)n2)cc(OC)c1OC", "100 to 1000 nM"],
  ["COc1cc(Nc2nccc(N3CCC[C@H](C(=O)NC(C)c4ccc(F)cc4)C3)n2)cc(OC)c1OC (stereo partly shown)", "100 to 1000 nM"],
  ["Cc1ccc(CNC(=O)[C@H]2CCCN(c3ccnc(Nc4ccc(S(N)(=O)=O)cc4)n3)C2)cc1", "100 to 1000 nM"],
  ["CC(=O)N1CC(C)(C)c2ccc(Nc3nccc(N4CCC[C@H](C(=O)NCc5ccc(C)cc5)C4)n3)cc21", "1000 to 5000 nM"]
]}

Query compound follows.
Please look up its IC50: COc1cc(Nc2nccc(N3CCC[C@H](C(=O)N[C@@H](C)c4ccc(Br)cc4)C3)n2)cc(OC)c1OC
100 to 1000 nM
